# system under test: T1, APP-Avi-soluble cynomolgus monkey LOX-1(61-273) (cynomolgus monkey)
# T1 construct: Non-biotinylated as titrated antigen in SET, biotinylated for capture on the plate; also called cyno sLOX-1; cynomolgus monkey soluble LOX-1
# T1 sequence (chain, as listed by the source limits assumed): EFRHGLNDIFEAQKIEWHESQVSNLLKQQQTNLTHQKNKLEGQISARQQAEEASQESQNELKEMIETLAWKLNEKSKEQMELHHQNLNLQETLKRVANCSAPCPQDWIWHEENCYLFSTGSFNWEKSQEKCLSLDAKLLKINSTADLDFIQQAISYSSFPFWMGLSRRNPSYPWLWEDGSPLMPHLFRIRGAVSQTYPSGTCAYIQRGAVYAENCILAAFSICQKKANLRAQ
# assay explanation: SET, IgG vs soluble cynomolgus LOX-1
pKd: −log10 of the molar value.
property measured: pKd

binder	meas value
MOR022025 (antibody, human IgG1, lambda, L234A L235A, V domains shown, Human IgG1f LALA; also called MOR20225; MOR020225) VH: QVQLLESGGGLVQPGGSLRLSCAASGFTFSDYALHWVRQAPGKGLEWVSVISYQGGFIYYADSVKGRFTISRDNSKNTLYLQMNSLRAEDTAVYYCARSPGLTSYHDSWGQGTLVTVSS VL: QSVLTQPPSVSGAPGQRVTISCSGSSSNIGSNYVSWYQQLPGTAPKLLIHSTSHRPSGVPDRFSGSKSGTSASLAITGLQAEDEADYYCQSWDYESERVVFGGGTKLTVLG	12.15
MOR22034 (antibody, human IgG1, kappa, L234A L235A, V domains shown, Human IgG1f LALA; also called MOR022034; MOR20234) VH: QVQLVQSGAEVKKPGSSVKVSCKASGGTFSDYAISWVRQAPGQGLEWMGGIVPIVGTANYAQKFQGRVTITADESTSTAYMELSSLRSEDTAVYYCARDSSTSYYYYFDYWGQGTLVTVSS VL: DIQMTQSPSSLSASVGDRVTITCRASQDISSWLAWYQQKPGKAPKLLIYQASNLQSGVPSRFSGSGSGTDFTLTISSLQPEDFATYYCQQMWQFPITFGQGTKVEIKR	11.30
MOR22028 (antibody, human IgG1, lambda, L234A L235A, V domains shown, Human IgG1f LALA; also called MOR022028; MOR20228) VH: QVQLLESGGGLVQPGGSLRLSCAASGFTFSDYALHWVRQAPGKGLEWVSVISYAGGFKFYADSVKGRFTISRDNSKNTLYLQMNSLRAEDTAVYYCARSPGLTSYHDSWGQGTLVTVSS VL: QSVLTQPPSVSGAPGQRVTISCSGSSSNIGSNYVSWYQQLPGTAPKLLIHSSSHRPSGVPDRFSGSKSGTSASLAITGLQAEDEADYYCQSWDYESERVVFGGGTKLTVLG	12.30
